- Tested on: MS2 coat protein
- METHOD_DESCRIPTION: apparent KD of MS2 coat protein; designed switch direction (-1 OFF switch, 1 ON switch): -1; higher = weaker reporter binding
- STUDY_CONDITIONS: Eterna round: R95; input ligand: microRNA oligo, concentration not stated
The following sequences are shown together with reported apparent KD of MS2 coat protein values.
Include the unit right after the number.

[
  {
    "BIOPOLYMER_SEQUENCE": "UUUUUCGAACAAGCUUCGUACAUGAGGAUCACCCAUGUUUUUAGAUUUGAGUAGGUUUGUAUGGAAGUUCGUCUUAU [JR_SV3TOV1_Sub087] (puzzle: Sensor v3, turn-off variant 1)",
    "apparent KD of MS2 coat protein": "159 nM"
  },
  {
    "BIOPOLYMER_SEQUENCE": "GAGGUGGGUUUUCAGAGUAACAUGAGGAUCACCCAUGUAGAAGUUGAAGGUAUCAAGCGAAUGGCUCGUCAAAUGUG [JR_SV3TOV1_Sub048] (puzzle: Sensor v3, turn-off variant 1)",
    "apparent KD of MS2 coat protein": "171 nM"
  }
]

Here CUUGAGUGACAAGCUUUUUGCUCGUCUGUUAUUGAUGCUACAUGAGGAUCACCCAUGUUUAAGAUGUGUGAGGAUGG [JR_SV3TOV2_Sub054] (puzzle: Sensor v3, turn-off variant 2) was tested on MS2 coat protein, and its apparent KD of MS2 coat protein came to 48.9 nM

###

- Tested on: MS2 coat protein
- METHOD_DESCRIPTION: apparent KD of MS2 coat protein; designed switch direction (-1 OFF switch, 1 ON switch): -1; higher = weaker reporter binding
- STUDY_CONDITIONS: input ligand: FMN 200 uM
Assign 1.0 to entries whose apparent KD of MS2 coat protein meets or exceeds 30 nM; assign 0.0 to the rest.

Solved cases (3 shown):
[
  {
    "BIOPOLYMER_SEQUENCE": "GCAGAAAGUGUAGGAUAUAUAAAUUAGCGGAAACGCAAUACAUGAGGAUCACCCAUGUUUCCUCAAUAGAAGGGCAAAAGCUGC [EXNG2 V2 e] (Eterna round: R96, puzzle: Exclusion NG 2)",
    "CATEGORY": 1.0
  },
  {
    "BIOPOLYMER_SEQUENCE": "UUAAAUCAUGUAGGAUAUGCUUUGCAAAGCGAAGCAGAAGGACAUGAGGAUCACCCAUGUGCUAGCGUCCGAGAACGGAUGCAA [Mat - Exclusion NG 1 - Mod of JL - D65] (Eterna round: R96, puzzle: Exclusion NG 1)",
    "CATEGORY": 1.0
  },
  {
    "BIOPOLYMER_SEQUENCE": "UCUUUGUUUGUGAGGAUAUCGGUGGAAUGGAUUGUCGAGAAGGCACAUGAGGAUCACCCAUGUGUGGGACAGCA [JR_BMEx4_Sub026] (Eterna round: R97, puzzle: Brourd's mod of Exclusion 4)",
    "CATEGORY": 0.0
  }
]

Qu. Check the entry AAUUAAUAUCAGGAUAUGACUUUCGAUAUUUAGUCAGAAGGGAUGACAUGAGGAUCACCCAUGUGAUCAAUUAA [JR_Ex6_Sub027] (Eterna round: R97, puzzle: Exclusion 6) : does apparent KD of MS2 coat protein equal or exceed 30 nM?
Ans. 1.0

Qu. apparent KD of MS2 coat protein >= 30 nM for CGGCGACAUGAGGAUCACCCAUGUGAGGAUAUGACGGGAAAAGCGUGAGCAGUUUGUGGCAGAAGGCGCGUAGG [salish99_ex1_r4_083] (Eterna round: R97, puzzle: Exclusion 1) ?
Ans. 0.0

Qu. Kindly determine if apparent KD of MS2 coat protein recorded for UGCAGACGAGGAUAUAAAUUUGAUAACAUGAGGAUCACCCAUGUGAUCGAUAGAUCAAAUUUAGAAGGCGUCUGCU [E5/7-A3] (Eterna round: R97, puzzle: Exclusion 5) is above or exactly 30 nM.
Ans. 1.0

Qu. Item UUAUUGGUAGUGAGGAUAUCGGAUAGAUAGAUAUUCGAGAAGGCACAUGAGGAUCACCCAUGUAAGAUUGGAAA [JR_BMEx4_Sub045] (Eterna round: R97, puzzle: Brourd's mod of Exclusion 4) with apparent KD of MS2 coat protein of 30 nM or above?
Ans. 1.0

Qu. Decide: is the reported value of apparent KD of MS2 coat protein for AAGAGCAUCGGAGGAUAUGGAGCUGAAACGGCGCUAGAAGGCCGUGCAGUGUAACAUGAGGAUCACCCAUGUAGGGACCUCUAA [EX ng 1 4] (Eterna round: R96, puzzle: Exclusion NG 1) equal to or greater than 30 nM?
Ans. 1.0

Qu. Check this sequence for apparent KD of MS2 coat protein at or above 30 nM: UCCACAUGAGGAUCACCCAUGUAAGGUGAGUAAAAGAAGAGGCAGGAUAUUGAAGCGACCUCGCCCAAGAAGGGCCUCACCAAA [Eternabot solution 11] (Eterna round: R96, puzzle: Exclusion NG 3)
Ans. 1.0

Qu. Given GUUGUUUAUGUAGGAUAUGCCUGGCGUGCCUAUGCAGAAGGACAUGAGGAUCACCCAUGUAUUGCGGUCUGCGUUCAGAUCGCU [salish99_ExNG1_r4_020] (Eterna round: R96, puzzle: Exclusion NG 1) , state whether its apparent KD of MS2 coat protein is at least 30 nM.
Ans. 0.0

Qu. Decide: apparent KD of MS2 coat protein of CGAUGAGGAGUGAGGAUAUCGUGUUCGAAAGAACGUGAGAAGGCACAUGAGGAUCACCCAUGUGAACCUUGUCG [Omei Ex4B A10] (Eterna round: R97, puzzle: Brourd's mod of Exclusion 4) >= 30 nM?
Ans. 0.0

Qu. Item GUUUCGAGACGGAGAUCCGACAUGAGGAUCACCCAUGUCUCCCAAGCUUUUUGCUCGUCUUAUACUCCUCUGUUCUC [Elimod 47 - Jieux - Sensor, turn-off variant 1] (Eterna round: R97, puzzle: Sensor, turn-off variant 1) with apparent KD of MS2 coat protein of 30 nM or above?
Ans. 0.0
